Sequence of the target: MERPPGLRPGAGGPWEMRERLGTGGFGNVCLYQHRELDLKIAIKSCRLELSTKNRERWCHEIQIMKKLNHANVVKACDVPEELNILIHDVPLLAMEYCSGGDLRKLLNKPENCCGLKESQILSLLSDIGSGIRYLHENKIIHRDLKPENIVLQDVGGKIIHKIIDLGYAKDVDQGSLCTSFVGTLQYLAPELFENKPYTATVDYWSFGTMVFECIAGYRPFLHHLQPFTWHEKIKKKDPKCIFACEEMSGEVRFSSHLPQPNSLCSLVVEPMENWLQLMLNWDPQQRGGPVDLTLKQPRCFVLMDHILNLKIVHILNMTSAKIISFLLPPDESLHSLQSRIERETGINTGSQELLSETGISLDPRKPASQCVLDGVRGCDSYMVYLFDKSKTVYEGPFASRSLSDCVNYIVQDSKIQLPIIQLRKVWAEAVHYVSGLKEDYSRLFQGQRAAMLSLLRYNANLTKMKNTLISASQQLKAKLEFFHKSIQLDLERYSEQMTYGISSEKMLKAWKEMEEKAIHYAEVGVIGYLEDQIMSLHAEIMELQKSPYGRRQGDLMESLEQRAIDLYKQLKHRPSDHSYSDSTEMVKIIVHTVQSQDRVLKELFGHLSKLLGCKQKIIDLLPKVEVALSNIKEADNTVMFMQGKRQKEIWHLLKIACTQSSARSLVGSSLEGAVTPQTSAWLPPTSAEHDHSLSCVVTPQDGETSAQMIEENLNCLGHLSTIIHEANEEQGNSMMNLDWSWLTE
PROPERTY LABEL: IC50

Answered cases to consult:
| COMPOUND | PROPERTY LABEL | DATA VALUE |
| --- | --- | --- |
| COc1cc2cc(-c3cnc4ccc(N[C@H]5CC[C@H](O)CC5)nn34)sc2cc1OC [Compound 169] | IC50 | > 10 µM |
| COc1cccc2cc(-c3cnc4ccc(N[C@H]5CC[C@H](O)CC5)nn34)sc12 [Compound 170] | IC50 | > 10 µM |
| O[C@H]1CC[C@H](Nc2ccc3ncc(-c4cc5ccccc5s4)n3n2)CC1 [Compound 105] | IC50 | > 10 µM |
| COc1ccc(Nc2ccc3ncc(-c4cc5ccccc5s4)n3n2)cc1OC [Compound 12] | IC50 | > 10 µM |

Now for a further compound.
Task: Name the reported IC50 value associated with the compound CN1CCN(Cc2ccc(-c3cnc4[nH]cc(-c5ccc6[nH]ccc6c5)c4c3)cc2)CC1 [URMC-099, reference compound]
Output: 0.591 µM

* * *

# SYSTEM: diverse set of kinases (Homo sapiens, UniProt P06213)
# Sequence (P06213 whole entry): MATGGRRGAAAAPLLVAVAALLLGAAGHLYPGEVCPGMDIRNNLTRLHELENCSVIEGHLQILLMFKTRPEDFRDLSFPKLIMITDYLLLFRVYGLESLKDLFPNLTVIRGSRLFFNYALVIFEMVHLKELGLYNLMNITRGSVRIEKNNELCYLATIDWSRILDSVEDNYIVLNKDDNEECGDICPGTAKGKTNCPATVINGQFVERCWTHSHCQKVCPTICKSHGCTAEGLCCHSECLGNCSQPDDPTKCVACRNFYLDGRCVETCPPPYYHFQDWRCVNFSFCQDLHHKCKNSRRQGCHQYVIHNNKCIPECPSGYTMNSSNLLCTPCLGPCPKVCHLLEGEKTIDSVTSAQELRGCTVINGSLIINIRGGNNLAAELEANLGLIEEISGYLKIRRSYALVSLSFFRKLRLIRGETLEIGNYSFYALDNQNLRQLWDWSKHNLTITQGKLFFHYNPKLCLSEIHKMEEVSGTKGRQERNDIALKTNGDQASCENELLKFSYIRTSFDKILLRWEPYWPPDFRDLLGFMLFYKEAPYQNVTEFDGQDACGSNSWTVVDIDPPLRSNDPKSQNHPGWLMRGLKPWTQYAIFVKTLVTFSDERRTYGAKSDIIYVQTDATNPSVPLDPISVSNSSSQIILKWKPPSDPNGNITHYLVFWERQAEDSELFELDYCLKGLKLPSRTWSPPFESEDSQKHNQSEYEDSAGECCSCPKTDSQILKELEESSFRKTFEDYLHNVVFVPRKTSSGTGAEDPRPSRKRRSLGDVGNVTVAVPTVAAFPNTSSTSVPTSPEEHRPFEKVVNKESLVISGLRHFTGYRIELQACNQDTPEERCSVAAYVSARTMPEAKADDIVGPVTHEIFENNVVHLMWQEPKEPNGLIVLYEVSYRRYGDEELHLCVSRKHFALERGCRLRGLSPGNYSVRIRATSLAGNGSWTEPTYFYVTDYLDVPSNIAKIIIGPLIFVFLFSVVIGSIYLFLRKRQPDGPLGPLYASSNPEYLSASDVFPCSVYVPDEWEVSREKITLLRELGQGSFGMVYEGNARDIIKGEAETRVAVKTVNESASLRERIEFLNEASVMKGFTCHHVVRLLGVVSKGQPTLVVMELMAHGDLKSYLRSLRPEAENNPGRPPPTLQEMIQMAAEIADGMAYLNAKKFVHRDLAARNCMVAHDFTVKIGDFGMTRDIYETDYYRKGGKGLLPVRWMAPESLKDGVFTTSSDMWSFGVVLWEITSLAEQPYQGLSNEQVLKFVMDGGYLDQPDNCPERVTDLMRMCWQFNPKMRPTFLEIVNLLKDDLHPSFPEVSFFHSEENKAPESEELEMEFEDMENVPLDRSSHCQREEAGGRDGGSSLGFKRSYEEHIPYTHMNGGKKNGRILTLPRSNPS
pIC50: −log10 of the molar value.
PROPERTY LABEL: pIC50

| MOLECULE | pIC50 |
| --- | --- |
| COc1ccc(Nc2ccc3ncc(-c4cc5ccccc5s4)n3n2)cc1OC | < 5.00 |
| CN1CCN(Cc2ccc(-c3cnc4[nH]cc(-c5ccc6[nH]ccc6c5)c4c3)cc2)CC1 [URMC-099, reference compound] | 6.70 |

Now for a further molecule.
Task: Name the reported pIC50 value associated with the molecule COc1ccc(Nc2ccc3ncc(-c4cc5cc(OC)c(OC)cc5s4)n3n2)cc1OC
Output: < 5.00

* * *

# SYSTEM: MLK-3 (Homo sapiens)
# Sequence (Q16584 whole entry): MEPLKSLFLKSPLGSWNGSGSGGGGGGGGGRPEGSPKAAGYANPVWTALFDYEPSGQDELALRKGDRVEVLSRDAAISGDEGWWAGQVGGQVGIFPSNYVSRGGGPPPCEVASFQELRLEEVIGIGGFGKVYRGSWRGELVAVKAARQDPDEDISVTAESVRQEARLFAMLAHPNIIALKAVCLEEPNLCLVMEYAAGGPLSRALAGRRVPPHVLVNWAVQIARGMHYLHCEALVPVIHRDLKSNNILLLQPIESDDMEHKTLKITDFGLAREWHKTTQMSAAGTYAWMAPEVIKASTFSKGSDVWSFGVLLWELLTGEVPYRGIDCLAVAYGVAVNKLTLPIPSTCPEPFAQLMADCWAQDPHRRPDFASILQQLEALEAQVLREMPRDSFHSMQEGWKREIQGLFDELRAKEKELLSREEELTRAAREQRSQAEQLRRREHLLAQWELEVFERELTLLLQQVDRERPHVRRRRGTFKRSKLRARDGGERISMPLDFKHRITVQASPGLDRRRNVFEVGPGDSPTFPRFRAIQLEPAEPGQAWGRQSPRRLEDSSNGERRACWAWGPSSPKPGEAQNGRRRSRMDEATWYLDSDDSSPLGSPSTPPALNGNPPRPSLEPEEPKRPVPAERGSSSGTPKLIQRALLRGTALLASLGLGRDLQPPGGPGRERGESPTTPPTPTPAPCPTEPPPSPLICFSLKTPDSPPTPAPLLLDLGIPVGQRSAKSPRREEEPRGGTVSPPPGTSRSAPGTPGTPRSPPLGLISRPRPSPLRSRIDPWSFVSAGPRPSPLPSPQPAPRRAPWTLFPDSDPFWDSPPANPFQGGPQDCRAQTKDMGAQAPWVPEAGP
# ASSAY NAME: Biochemical assay for the inhibition of kinase activity for MLK-3 (33P-ATP, HOTSPOT filter binding)
# CONDITION NOTES: activated MLK-3 20 nM, ATP 50 μM, myelin basic protein 20 μM, 20 minutes room temperature
# Method: Biochemical Assay for the Inhibition of Kinase Activity for MLK-3: Myelin basic protein (20 μM final concentration) is dissolved in 20 mM Hepes (pH 7.5) containing […], […], 0.02% Brij35, 0.02 mg/ml BSA, 0.1 μM Na3VO4, 2 mM DTT, and 1% DMSO. […]
pIC50: −log10 of the molar value.
PROPERTY LABEL: pIC50

Answered cases to consult:
| COMPOUND | pIC50 |
| --- | --- |
| COc1ccc2cc(-c3cnc4ccc(N[C@H]5CC[C@H](O)CC5)nn34)[nH]c2c1 [Compound 86] | 6.30 to 7.00 |
| CCOc1cccc2cc(-c3cnc4ccc(Nc5ccc(OC)c(OC)c5)nn34)sc12 [Compound 186] | 6.30 to 7.00 |
| O[C@H]1CC[C@H](Nc2ccc3ncc(-c4ccsc4)n3n2)CC1 [Compound 180] | > 5.30 |
| COc1cc2cc(-c3cnc4ccc(Nc5cccc(C(=O)O)c5)nn34)sc2cc1OC [Compound 71] | > 7.00 |

Task: Name the reported pIC50 value associated with the compound COc1cccc2cc(-c3cnc4ccc(N[C@H]5CC[C@H](OC)CC5)nn34)[nH]c12 [Compound 199]
Output: > 5.30

Task: Name the reported pIC50 value associated with the compound Cc1nc2ccc(N[C@H]3CC[C@H](O)CC3)nn2c1-c1cc2ccccc2s1 [Compound 111]
Output: > 5.30

Task: Name the reported pIC50 value associated with the compound CC(C)Oc1cccc2cc(-c3cnc4ccc(N[C@H]5CC[C@H](O)CC5)nn34)sc12 [Compound 178]
Output: 6.30 to 7.00

meta.source: patent US9370515B2
